Assay: Caco-2 cell monolayer membrane transport assay
Details: human, Caco-2, Recovery rate in mass, Sample-01, Caco-2; A-B; Sample-01
Recorded Endpoint: recovery (%)

>  <Molecule Smiles>
CO[C@H]1C(=O)[C@]2(C)C=C[C@@H](O)[C@](CO)(OC(C)=O)[C@H]2[C@H](OC(=O)c2ccccc2)[C@]2(O)C[C@H](OC(=O)[C@H](O)[C@@H](NC(=O)OC(C)(C)C)c3ccccc3)C(C)=C1C2(C)C

>  <Measurement>
85.7

$$$$
>  <Molecule Smiles>
COC(=O)O[C@H]1C[C@H]2OC[C@@]2(OC(C)=O)[C@H]2[C@H](OC(=O)c3ccccc3)[C@]3(O)C[C@H](OC(=O)[C@H](O)[C@H](CC(C)C)NC(=O)OC(C)(C)C)C(C)=C([C@@H](OC)C(=O)[C@]12C)C3(C)C

>  <Measurement>
71.7

$$$$
